B1: LOXL2 (parent)
chain: YVEVKEGKTWKQICDKHWTAKNSR

Variants of: B1
experiment_notes: protein stability index of a GFP-peptide fusion (GPS, HEK-293T) (PSI 1-6); higher = more stable;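 further: lentivirally expressed fusions sorted by FACS into six bins by GFP to DsRed ratio, PSI derived from sequencing read proportions per bin multiplied by bin number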
test_conditions: c terminus: a fixed tail appended
recorded_metric: protein stability index
Just the number, please, no unit after it.

{"mutant_designation": "D15V", "protein stability index": 2.49}

// switching to the query variant
Looking up `C14K` , I found its protein stability index recorded as 1.45

Just for reference, the supplement of paper PMC10567573 is where these values come from.
